assay_remarks: in vitro
test_context: human, hela cells, % viability
measured_endpoint: viability at 28.5 h, 10 µM (%)
Form entry: value (%) — number only.

Example results:
O=C(NCCc1cccs1)C(c1ccccc1)c1ccccc1	90.1
CC(Nc1nc(N2CCN(CCO)CC2)nc2ccccc12)c1ccccc1 (stereo not shown)	106
Cc1cc(F)ccc1S(=O)(=O)N(C(=O)c1ccncc1)c1ccc(OC(=O)c2ccncc2)cc1	91.1
FC(F)(F)c1cnc(N2CCNCC2)c(Cl)c1	92.9
CCc1nc2c(OCCC3CCCCC3)cccn2c1N(C)C(=O)CC(C)C	94.8
CN(Cc1cccn1C)C(=O)c1cc(-c2cnn(C)c2)[nH]n1	103

Which viability at 28.5 h, 10 µM is reported for this compound? CC1(C)CC(=O)c2sc(NC(=O)c3ccccc3)nc2C1
85.6

Which viability at 28.5 h, 10 µM is reported for this compound? Cc1cc(C)nc(NCc2cnn(C)c2C)n1
88.1

Which viability at 28.5 h, 10 µM is reported for this compound? Cc1ccc(NC(=O)C2CC(=O)Nc3nc(SCc4ccccc4C)[nH]c(=O)c32)c(C)c1 (stereo not shown)
91

Which viability at 28.5 h, 10 µM is reported for this compound? CCCCNC(=S)N[C@H]1CC[C@@]2(C3=CC=CC4C=CC=CC34)CCN(C)[C@H]2C1 (stereo partly shown) [CBK003610C]
101

Which viability at 28.5 h, 10 µM is reported for this compound? O=C(NCC1CCCO1)c1ccc(CNS(=O)(=O)c2cccc(Cl)c2)cc1 (stereo not shown)
88.6

Which viability at 28.5 h, 10 µM is reported for this compound? CCC1(CC)OC(N[C@@H](C)c2ccc(Cl)cc2)=NC1=O
93.2

Which viability at 28.5 h, 10 µM is reported for this compound? N#Cc1ccc(CN2C(=O)c3ccccc3C2=O)cc1
100

Which viability at 28.5 h, 10 µM is reported for this compound? Cc1ccc(S(=O)(=O)N2CC[C@@H]3C[C@H](NC(=O)C4CC4C)[C@@H]32)cc1 (stereo partly shown)
90

Which viability at 28.5 h, 10 µM is reported for this compound? CN(C)S(=O)(=O)N(CC(=O)O)c1ccccc1
105

Which viability at 28.5 h, 10 µM is reported for this compound? O=C(COc1ccccc1C1CC(=O)Nc2ccc3ccccc3c21)Nc1ccccc1 (stereo not shown)
97.3

Which viability at 28.5 h, 10 µM is reported for this compound? Clc1ccc(COc2nccnc2OCCOc2ccccc2)cc1Cl
92.5

Which viability at 28.5 h, 10 µM is reported for this compound? CC(C)c1cc(C(=O)NC2CCN(c3ncccc3C#N)CC2)n(C)n1
87.1

Which viability at 28.5 h, 10 µM is reported for this compound? Cc1occc1-c1nnc(SCC(=O)Nc2c(C)n(C)n(-c3ccccc3)c2=O)o1
90.9
